- Protocol Notes: Bioavailability, comparative study in dogs (150 mg/kg)
- Assay type: in vivo
- Applied Conditions: dog, in vivo, oral, Beagle dogs, crossover, suspension, geometric means
Measure Name: Cmax (ng/mL)
Output spec: scalar in ng/mL, unitless text.

IN: # query: Cmax of entry O=C(NC[C@H]1CN(c2ccc(N3CCOCC3=O)cc2)C(=O)O1)c1ccc(Cl)s1
OUT: 2220
